Target: ETB (Homo sapiens, UniProt P24530)
Sequence (P24530 27-442): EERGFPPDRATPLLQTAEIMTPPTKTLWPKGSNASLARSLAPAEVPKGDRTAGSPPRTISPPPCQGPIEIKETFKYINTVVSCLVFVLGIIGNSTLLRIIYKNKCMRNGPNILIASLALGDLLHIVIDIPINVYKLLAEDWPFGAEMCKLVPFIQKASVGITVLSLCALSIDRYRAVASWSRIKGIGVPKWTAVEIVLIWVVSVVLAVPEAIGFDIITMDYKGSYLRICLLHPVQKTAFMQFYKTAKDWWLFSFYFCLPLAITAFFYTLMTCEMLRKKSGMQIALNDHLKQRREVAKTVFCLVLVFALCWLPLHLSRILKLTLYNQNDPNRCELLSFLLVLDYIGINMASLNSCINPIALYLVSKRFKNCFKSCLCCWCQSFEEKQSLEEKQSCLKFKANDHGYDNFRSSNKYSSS
Experiment: 125[I]-endothelin-1 receptor binding cold ligand competition curves in human myocardial membranes (ETB)
Set-up: human myocardial membranes prepared from failing and non-failing left ventricles; from tissue; host or cells: human left ventricular myocardium (failing and non-failing), membranes
Settings: 10 μM Gpp(NH)p, 4-hour incubation, steady-state binding, mean of 8 assays
quantityMeasured: Ki
Answer with the figure and its unit, nothing else.

Value of Ki reported for the molecule COc1cc(OC)nc(O[C@H](C(=O)O)C(OC)(c2ccccc2)c2ccccc2)n1 [darusentan] is 216 nM

----------
Molecular target: ETA (Homo sapiens)
Sequence (P25101 21-427): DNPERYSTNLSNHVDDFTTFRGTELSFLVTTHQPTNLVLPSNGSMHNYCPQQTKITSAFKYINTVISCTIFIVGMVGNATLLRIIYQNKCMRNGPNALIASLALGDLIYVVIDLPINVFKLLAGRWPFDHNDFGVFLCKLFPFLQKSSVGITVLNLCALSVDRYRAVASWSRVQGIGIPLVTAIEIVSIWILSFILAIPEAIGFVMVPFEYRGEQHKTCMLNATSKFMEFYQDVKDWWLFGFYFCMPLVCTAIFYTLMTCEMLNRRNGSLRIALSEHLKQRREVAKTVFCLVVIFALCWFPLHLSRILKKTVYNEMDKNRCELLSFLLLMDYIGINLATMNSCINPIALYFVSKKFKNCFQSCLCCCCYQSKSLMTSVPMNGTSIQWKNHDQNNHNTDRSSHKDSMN
Test: 125[I]-endothelin-1 receptor binding cold ligand competition curves in human myocardial membranes (ETA)
Design: human myocardial membranes prepared from failing and non-failing left ventricles; from tissue; host or cells: human left ventricular myocardium (failing and non-failing), membranes
Settings: 10 μM Gpp(NH)p, 4-hour incubation, steady-state binding, mean of 8 assays
quantityMeasured: Ki (nM)
Give your result in nM as a bare value.

Reading of Ki for COc1cc(OC)nc(O[C@H](C(=O)O)C(OC)(c2ccccc2)c2ccccc2)n1 with ETA (Homo sapiens): 0.178
